Target: human CDK4/cyclin D3 (Homo sapiens)
Construct: made in house; host or cells: insect cells co-infected with baculovirus vectors
Sequence (P11802 whole entry): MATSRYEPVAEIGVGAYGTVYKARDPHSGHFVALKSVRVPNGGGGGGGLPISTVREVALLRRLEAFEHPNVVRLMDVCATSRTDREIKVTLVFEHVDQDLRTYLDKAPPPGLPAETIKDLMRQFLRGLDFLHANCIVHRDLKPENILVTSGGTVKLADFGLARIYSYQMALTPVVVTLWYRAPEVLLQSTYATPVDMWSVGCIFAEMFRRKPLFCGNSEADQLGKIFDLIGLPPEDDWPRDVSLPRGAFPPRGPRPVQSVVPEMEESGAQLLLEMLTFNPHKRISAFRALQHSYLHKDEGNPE
Sequence (P30281 1-264 partner limits assumed): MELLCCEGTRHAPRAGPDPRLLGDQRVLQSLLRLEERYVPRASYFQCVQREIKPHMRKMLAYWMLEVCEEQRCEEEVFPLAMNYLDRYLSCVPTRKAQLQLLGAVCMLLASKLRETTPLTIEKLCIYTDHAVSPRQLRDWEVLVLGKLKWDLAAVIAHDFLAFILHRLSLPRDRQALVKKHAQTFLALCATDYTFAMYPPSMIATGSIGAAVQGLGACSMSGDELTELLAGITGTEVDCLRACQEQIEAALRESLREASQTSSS
Assay: Inhibition of CDK4/cyclin D retinoblastoma kinase activity (Ki; % inhibition)
Assay type: biochemical
Details: 0.03 μM compound; 0.03 µM
Method: Cyclin-dependent kinase activity was measured by quantifying the enzyme-catalyzed, time-dependent incorporation of radioactive phosphate from [^32P]ATP or [^33P]ATP into a protein substrate. […] The phosphorylated substrate was then captured on a nitrocellulose or phosphocellulose membrane using a 96-well filtration manifold, and unincorporated radioactivity was removed by repeated washing with 0.85% phosphoric acid. Radioactivity was quantified by exposing the dried membranes to a phosphorimager. […]
MEASUREMENT NAME: CDK4 % Inhibition at 0.03 μM (%)

- COMPOUND: "Nc1nc(Nc2ccc(C(=O)NC3CCN(Cc4ccccc4)C3)cc2)sc1C(=O)c1c(F)cccc1F (stereo not shown) [Example G381]"
  UNIT OF MEASUREMENT: "%"
  READOUT VALUE: 38

A = CC(NC(=O)c1ccc(Nc2nc(N)c(C(=O)c3c(F)cccc3F)s2)cc1)C1CCCCC1 (stereo not shown) [Example G300]
B = Nc1nc(Nc2ccc(C(=O)NC3CCN(Cc4ccccc4)C3)cc2)sc1C(=O)c1c(F)cccc1F (stereo not shown) [Example G353]
C = CC(NC(=O)c1ccc(Nc2nc(N)c(C(=O)c3c(F)cccc3F)s2)cc1)C1CCCCC1 (stereo not shown) [Example G388]
Problem: Number of compounds to sort: 3. Sort criterion: CDK4 % Inhibition at 0.03 μM, ascending. # answer = labels listed in requested order
Result: A, C, B
(A: −10%, C: 8%, B: 46%)
